# subject_of_test: USP8^CD (purified catalytic domain of USP8) (Homo sapiens, UniProt P40818)
# Construct: the purified catalytic domain of USP8 (USP8^CD, in-house purified); made in house; host or cells: E. coli BL21 Gold
# Sequence (P40818 777-1109 limits assumed): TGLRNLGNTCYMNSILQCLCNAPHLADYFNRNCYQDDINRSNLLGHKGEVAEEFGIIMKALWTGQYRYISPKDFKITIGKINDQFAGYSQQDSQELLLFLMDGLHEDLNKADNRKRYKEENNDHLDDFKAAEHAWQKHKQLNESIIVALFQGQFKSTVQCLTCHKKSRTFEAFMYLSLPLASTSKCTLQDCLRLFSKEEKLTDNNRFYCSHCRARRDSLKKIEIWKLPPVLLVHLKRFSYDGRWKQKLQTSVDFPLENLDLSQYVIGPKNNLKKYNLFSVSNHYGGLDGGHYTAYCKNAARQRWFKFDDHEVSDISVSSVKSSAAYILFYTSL
# assay_summary: Inhibition of purified USP8^CD enzymatic activity (Ub-AMC or Ub-Rho substrate)
# Format: biochemical
# test_conditions: 50 μM compound; Table 1b
# Protocol: USP2CD or USP8CD were expressed in E. coli BL21 Gold. Cells were grown in LB Miller to mid-log phase and induced by addition of 0.5 mM IPTG for USP2CD for 5 h at 20° C., while 1 mM IPTG was added for USP8CD for 3 h at 37° C. Then, cells were harvested and frozen at −80° C. For His-tagged USP8CD, cells were resuspended in buffer A (50 mM TRIS pH 8.0, 500 mM NaCl, 2 mM Imidazole) and lysed using a sonicator. […]
Answer each item with its documented inhibition at 50 µM.
Give bare numbers, in %.

structure=CCS(=O)(=O)Cc1nc2c(nc1CS(=O)(=O)CC)C(=O)c1ccccc1C2=O subject_of_test="USP8^CD (purified catalytic domain of USP8) (Homo sapiens, UniProt P40818)" measured_result=106
structure=O=C1c2ccccc2C(=O)c2nc(CS(=O)(=O)c3ccc(F)c(F)c3F)c(CS(=O)(=O)c3ccc(F)c(F)c3F)nc21 subject_of_test="USP8^CD (purified catalytic domain of USP8) (Homo sapiens, UniProt P40818)" measured_result=103
structure=O=C1c2ccccc2C(=O)c2nc(CS(=O)(=O)c3cccc(F)c3)c(CS(=O)(=O)c3cccc(F)c3)nc21 subject_of_test="USP8^CD (purified catalytic domain of USP8) (Homo sapiens, UniProt P40818)" measured_result=94
structure=CCCCCS(=O)(=O)Cc1nc2c(nc1CS(=O)(=O)CCCCC)C(=O)c1ccccc1C2=O subject_of_test="USP8^CD (purified catalytic domain of USP8) (Homo sapiens, UniProt P40818)" measured_result=100
structure=O=C1c2ccccc2C(=O)c2nc(CS(=O)(=O)c3cccc(Cl)c3)c(CS(=O)(=O)c3cccc(Cl)c3)nc21 subject_of_test="USP8^CD (purified catalytic domain of USP8) (Homo sapiens, UniProt P40818)" measured_result=83

Provide the reported inhibition at 50 µM of each entry below, same order.
1. COc1ccc(S(=O)(=O)Cc2nc3c(nc2CS(=O)(=O)c2ccc(OC)cc2)C(=O)c2ccccc2C3=O)cc1
2. CCCS(=O)(=O)Cc1nc2c(nc1CS(=O)(=O)CCC)C(=O)c1ccccc1C2=O
3. O=C1c2ccccc2C(=O)c2nc(CS(=O)(=O)c3ccc4c(c3)OCCO4)c(CS(=O)(=O)c3ccc4c(c3)OCCO4)nc21
4. O=C1c2ccccc2C(=O)c2nc(CS(=O)(=O)c3cccc(C(F)(F)F)c3)c(CS(=O)(=O)c3cccc(C(F)(F)F)c3)nc21
5. COc1ccc(S(=O)(=O)Cc2nc3c(nc2CS(=O)(=O)c2ccc(OC)c(OC)c2)C(=O)c2ccccc2C3=O)cc1OC
6. CS(=O)(=O)Cc1nc2c(nc1CS(C)(=O)=O)C(=O)c1ccccc1C2=O
7. O=C1c2ccccc2C(=O)c2nc(CS(=O)(=O)c3ccccc3F)c(CS(=O)(=O)c3ccccc3F)nc21
8. O=C1c2ccccc2C(=O)c2nc(CS(=O)(=O)c3ccc(Br)s3)c(CS(=O)(=O)c3ccc(Br)s3)nc21

1: 100; 2: 107; 3: 77; 4: 85; 5: 101; 6: 103; 7: 103; 8: 104
